assay_info: Stability of the compound in methanol/HEPES buffer at pH 7.8 at 40 degC for 24 hrs by HPLC analysis
Type: physicochemical
assay_context: read-out: Stability
metric: remaining at 24 h

Example entries begin here.
CC(C)NC(=O)[C@@H]1CCCCN1S(=O)(=O)Cc1ccccc1 :: > 95%
O=C(OCCCc1cccnc1)[C@@H]1CCCCN1S(=O)(=O)Cc1ccc(F)cc1 :: > 95%

Then there is this compound:
Request: Request the reported remaining at 24 h associated with C[C@@H](CNC(=O)c1cccnc1)OC(=O)[C@@H]1CCCCN1S(=O)(=O)Cc1ccccc1
Response: > 95%

---

assay_info: in vitro
assay_context: mouse, J774.1 cells
So I've got a bunch of compounds here, and I need their IC50 at 24 h values.

Nc1ccc(CS(=O)(=O)N2CCCCC2C(=O)OCCCc2cccnc2)cc1 (racemic) :: > 100 µM
O=C(OCCCc1cccnc1)[C@@H]1CCCCN1S(=O)(=O)Cc1ccc(F)cc1 :: > 100 µM

Request: Request the reported IC50 at 24 h associated with CC(C)NC(=O)[C@@H]1CCCCN1S(=O)(=O)Cc1ccccc1
Response: > 100 µM

---

test_system: Outer membrane protein MIP (Legionella pneumophila)
Threshold 10 µM: IC50 strictly smaller gives met, otherwise not met.

Examples with answers:
O=C(C(=O)N1CCCC[C@H]1C(=O)OCCCc1cccnc1)c1ccccc1 :: not met
CC(C)Nc1cccc(CS(=O)(=O)N2CCCCC2C(=O)OCCCc2cccnc2)c1 (racemic) :: not met
COCCOc1cc(OCCOC)cc(C(=O)NCCOC(=O)[C@@H]2CCCCN2S(=O)(=O)Cc2ccccc2)c1 :: met
COCCOc1cc(OCCOC)cc(C(=O)OCCOC(=O)[C@@H]2CCCCN2S(=O)(=O)Cc2ccccc2)c1 :: met
O=C(OCCCc1cccnc1)C1CCCCN1S(=O)(=O)Cc1cccc([N+](=O)[O-])c1 (racemic) :: met
COc1cc(C(=O)NCCOC(=O)[C@@H]2CCCCN2S(=O)(=O)Cc2ccccc2)ccc1O :: met

Turning to the following compound.
Request: For O=C(OCCCc1cccnc1)C1CCCCN1S(=O)(=O)Cc1ccccc1 (racemic) , is the recorded IC50 below the cut-off of 10 µM?
Response: not met

---

test_system: Outer membrane protein MIP (Legionella pneumophila, UniProt Q70YI1)
Sequence (Q70YI1 21-233 limits assumed): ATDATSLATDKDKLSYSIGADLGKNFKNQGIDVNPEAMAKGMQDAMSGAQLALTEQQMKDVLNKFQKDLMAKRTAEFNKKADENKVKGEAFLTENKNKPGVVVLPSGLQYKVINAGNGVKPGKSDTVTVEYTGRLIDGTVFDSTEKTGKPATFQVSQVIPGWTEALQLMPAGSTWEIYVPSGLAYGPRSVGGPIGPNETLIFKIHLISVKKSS
metric: pIC50
Give bare numbers, as −log10 of the molar value.

Example entries begin here.
O=C(OCCCc1cccnc1)[C@@H]1CCCCN1S(=O)(=O)Cc1cccc([N+](=O)[O-])c1 :: 5.10
O=C(OCCCc1cccnc1)C1CCCCN1C(=O)COc1ccc(Cl)cc1 (racemic) :: 4.05

Request: Hello, I am looking for reported pIC50 with Outer membrane protein MIP (Legionella pneumophila, UniProt Q70YI1) for C[C@H](CNC(=O)c1cccnc1)OC(=O)[C@@H]1CCCCN1S(=O)(=O)Cc1ccccc1 (single isomer, unassigned) . Could you help?
Response: 4.94
